Target: HLA-DRB1*0101 (human)
Test: competition binding
Conditions: modification not given
Each record is given Satisfied if its reported IC50 is strictly below 2000 nM. Records at or above 2000 nM are given Not satisfied.

>>> label_value("KPLTLRWEPSSQPTI [p50*]")
"Satisfied"
>>> label_value("EQRYTCHVQHEGLPKP [p48]")
"Satisfied"
>>> label_value("YAYDGKDYIALKEDL [p24]")
"Satisfied"
>>> label_value("LTLRWEPSSQPTIPI [p51*]")
"Satisfied"
>>> label_value("APWIEQEGPEYWDGE [p10]")
"Not satisfied"
>>> label_value("FQKWAAVVVPSGQEQR [p46*]")
"Satisfied"
>>> label_value("IPIVGIIAGLVLFGA [p53*]")
"Satisfied"

*Q* Is IC50 strictly under 2000 nM for the entry VRFDSDAASQRMEPR [p8*] ?
*A* Not satisfied
